Origin of measurements: patent US20080306146A1

assay: clinical; details: male, human, plasma, po, 5 mg
measure-name: Cmax (ng/mL)
# value in ng/mL; strip the unit string

Looking for the measured Cmax of "CC1(C)OC(c2ccc(S(N)(=O)=O)cc2)=C(c2cccc(F)c2)C1=O" , can you help?
7.82

###

assay: clinical; details: male, human, plasma, po, 1 mg
measure-name: Cmax (ng/mL)
# value in ng/mL; strip the unit string

Looking for the measured Cmax of "CC1(C)OC(c2ccc(S(N)(=O)=O)cc2)=C(c2cccc(F)c2)C1=O" , can you help?
1.65

###

assay: clinical; settings: male, human, plasma, po, 12 mg
measure-name: Cmax (ng/mL)
# value in ng/mL; strip the unit string

Looking for the measured Cmax of "CC1(C)OC(c2ccc(S(N)(=O)=O)cc2)=C(c2cccc(F)c2)C1=O" , can you help?
18.1
